- System: HCC-2998 colon
- Protocol: NCI tumour cell line growth inhibition, 48 h
Measurement Name: TGI

Consider the worked cases shown below.
Form field: TGI recorded for `CSc1nn2c(-c3ccc4ccccc4c3)ccnc2c1C#N` with HCC-2998 colon (enter value)
> 100 µM

Form field: TGI recorded for CC1CCC(C(C)C2C(O)CC3C4CC=C5CC(O)CCC5(C)C4CCC32C)NC1 (stereo unspecified) with HCC-2998 colon (enter value)
53.1 µM

Form field: TGI recorded for `O=C(Cc1ccc(OCc2cccc(Cl)c2)cc1)NO` with HCC-2998 colon (enter value)
> 100 µM

Form field: TGI recorded for COC(=O)C(C)(Cc1ccc2c(c1)nnn2C(C)=O)NC(C)=O (stereo unspecified) with HCC-2998 colon (enter value)
> 100 µM

Form field: TGI recorded for O=NNc1ccc(S(=O)c2ccccc2)cn1 (stereo unspecified) with HCC-2998 colon (enter value)
> 100 µM

Let us move to another entry and its TGI.
Form field: TGI recorded for `COc1ccc(-c2nc3ccc([N+](=O)[O-])cc3c(=O)[nH]2)cc1` with HCC-2998 colon (enter value)
> 100 µM

---

Would you mind telling me the reported TGI of each entry?
- System: HT29 colon
- Protocol: NCI tumour cell line growth inhibition, 48 h
Where a SMILES comes first, the peptide text is derived from it. The star is where a group is joined. CH2Cl = ClC*

Consider the worked cases shown below.
Which TGI is reported for this compound? `CN1CCN(Cc2ccc(NC(=O)c3nc4ccc5[nH]ncc5c4c4c3CCCC4)cc2C(F)(F)F)CC1`
1.81 µM

Which TGI is reported for this compound? `C=C1C(=O)O[C@H]2[C@H]1CC/C(COC(=O)NCc1[nH]nc3ccccc13)=C\CC[C@@]1(C)O[C@@H]21`
2.69 µM

Which TGI is reported for this compound? `NS(=O)(=O)c1ccc(Nc2ncc(-c3ccccc3)o2)cc1`
> 25 µM

Below are 3 compounds. Give each one its TGI.
1. COc1cc(C(=O)C(CO)Oc2ccccc2OC)ccc1O (stereo not given)
2. CC(=O)NC(CC(C)C)C(=O)NC(Cc1ccccc1)C(=O)CCl (stereo not drawn) (Ac-Leu-Phe-CH2Cl; configuration not given here)
3. O=S(=O)(O)c1ccc2c(N=Nc3cccc4ccccc34)c(O)c(S(=O)(=O)O)cc2c1

1. > 100 µM
2. 34.6 µM
3. > 100 µM

---

- System: NCI-H522 lung
- Protocol: NCI tumour cell line growth inhibition, 48 h
Measurement Name: TGI (µM)
Numbers only, in µM.

Which TGI is reported for this molecule? `Cc1ccc(NS(=O)(=O)c2ccc(-c3cnc(C4CC4)o3)cc2)cc1C`
3.28

Which TGI is reported for this molecule? CN(C)c1ccc(O)c2c1CC1CC3C(N(C)C)C(=O)C(C(N)=O)=C(O)C3(O)C(=O)C1=C2O (stereo not given)
46

Below are 7 molecules. Give each one its TGI.
1. CCCCN(CCCC)CC(O)c1ccc(OCc2ccccc2)c2ccccc12 (stereo not given)
2. COC(=O)C(Cc1c[nH]c2ccccc12)NC(=O)C(Cc1c[nH]c2ccccc12)NC(=O)OCc1ccccc1 (stereo not given)
3. CC(C)=CCc1c(O)c(CC2=C(O)C(C)=C(O)C(CC=C(C)C)(C(=O)C(C)C)C2=O)c(O)c(C(=O)C(C)C)c1O (stereo not given)
4. O=C(O)CCc1nc2c(n1Cc1ccccc1)C(=O)c1ccccc1C2=O
5. CCOC(=O)c1ccc(NC(=O)Nc2nccs2)cc1
6. OCCCNCC(O)c1ccc(OCc2ccccc2)c(OCc2ccccc2)c1 (stereo not given)
7. N=C1N(c2ccccc2)C(=S)C(=Nc2ccccc2)N1c1ccccc1

[4.37, 32.2, 21.5, 72.1, 0.688, 30, 7.72]

---

Would you mind telling me the reported TGI of each entry?
- Test system: A549 NSCLC
- Protocol: NCI tumour cell line growth inhibition, 48 h

Consider the worked cases shown below.
Which TGI is reported for this molecule? `CC1(C)CC(=O)C(C(=O)C(=O)NC2=C(Cl)C(=O)c3ccccc3C2=O)C(=O)C1`
> 100 µM

Which TGI is reported for this molecule? `N#Cc1c(-c2ccccc2)n([O-])c2ccccc2[n+]1=O`
50.9 µM

Which TGI is reported for this molecule? `COC(=O)[C@](NC(=O)OCc1ccccc1)([C@@H](C)Sc1ccc(C)cc1)C(F)(F)F`
> 100 µM

Let us move to another entry and its TGI.
Which TGI is reported for this molecule? C=CC(O)C#Cc1cnc(OC)nc1OC (centres undefined)
> 100 µM

---

- Test system: SW-620 colon
- Protocol: NCI tumour cell line growth inhibition, 48 h; in the data active means GI50 below about 0.43 µM; inactive means the rest
Choose one outcome from this list and give only that: class 1 = active, class 0 = inactive

Example entries and their recorded answers appear below.
For `CSc1nn2c(-c3ccc4ccccc4c3)ccnc2c1C#N` , which call appears in the assay record?
class 0

For `O=[N+]([O-])c1cc([N+](=O)[O-])c(N2CCCC2)cc1NN=C(c1ccc(O)cc1)c1ccc(O)cc1` , which call appears in the assay record?
class 0

For `COc1cc(-c2cncn2-c2ccc(-c3nc4ccc(F)cc4s3)cc2)ccc1F` , which call appears in the assay record?
class 0

For `CCCCCCCCCCCCCCCCNC(=O)OC(C)C` , which call appears in the assay record?
class 0

For `CCC(CC)COC(=O)[C@H](C)N[P@](=O)(OC[C@H]1O[C@@](C#N)(c2ccc3c(N)ncnn23)[C@H](O)[C@@H]1O)Oc1ccccc1` , which call appears in the assay record?
class 0

For CC1=C(C(=O)Nc2ccc(Cl)c(Cl)c2)C(c2ccccc2Cl)NC(=S)N1 (stereo not given) , which call appears in the assay record?
class 0

For `COc1ccc(-c2cnoc2-c2ccc(OC)cc2O)cc1` , which call appears in the assay record?
class 0

For `O=C(Nc1cccc(-n2cc(-c3ccncc3)c(-c3ccc(Cl)c(O)c3)n2)c1)Nc1cccc(C(F)(F)F)c1` , which call appears in the assay record?
class 0

For `COc1cccc(-n2ncc3c(N/N=C/c4ccc(F)cc4)ncnc32)c1` , which call appears in the assay record?
class 0

For `NS(=O)(=O)c1ccc(Nc2ncc(-c3ccccc3)o2)cc1` , which call appears in the assay record?
class 0

Next:
For `CCCCC/C=C/C(=O)CCc1ccc(O)c(OC)c1` , which call appears in the assay record?
class 0

For `N#Cc1c(-c2ccccc2)n([O-])c2ccccc2[n+]1=O` , which call appears in the assay record?
class 0

For `CCN(CC)CCCN1C(=O)c2c(c(C)c3c(oc4ccc(O)cc43)c2C)C1=O` , which call appears in the assay record?
class 0

For `COc1ccc2c(c1)CC[C@@H]1[C@@H]2CC[C@]2(C)C(c3ccsc3)=C(/C=C/C(=O)c3ccccc3)C[C@@H]12` , which call appears in the assay record?
class 0

For `CNCCCNc1c2cc(OC)ccc2nc2cccc([N+](=O)[O-])c12` , which call appears in the assay record?
class 1

For `Oc1ccc(/C=C/c2ccc(O)cc2)cc1` , which call appears in the assay record?
class 0

---

- Tested on: NCI-H522 lung
- Protocol: NCI tumour cell line growth inhibition, 48 h
Would you mind telling me the reported log10(TGI) of each entry?
Reminder: these figures are log10 of reported TGI, in µM before transformation.

Which log10(TGI) is reported for this molecule? `CC[C@@]1(O)C(=O)OCc2c1cc1n(c2=O)Cc2cc3c([N+](=O)[O-])c(OC)ccc3nc2-1`
0.33

Which log10(TGI) is reported for this molecule? `C/C=C(/C(=C/C)c1ccc(O)cc1)c1ccc(O)cc1`
1.23

Which log10(TGI) is reported for this molecule? `CCC(CC)COC(=O)[C@H](C)N[P@](=O)(OC[C@H]1O[C@@](C#N)(c2ccc3c(N)ncnn23)[C@H](O)[C@@H]1O)Oc1ccccc1`
1.44

Which log10(TGI) is reported for this molecule? `O=C(c1ccco1)N(Cc1cccnc1)C(=S)N(Cc1cccnc1)C(=O)c1ccco1`
1.48

Which log10(TGI) is reported for this molecule? `CC(C)(C)CC(C)(C)c1ccc(OCCSC(=N)N)cc1`
0.54

Below are 2 molecules. Give each one its log10(TGI).
1. Cc1ccc2c(=O)cc(-c3cccc(Cl)c3)[nH]c2n1
2. Nc1nc2cc(-c3ccc4ncc(C(=O)N5CCOCC5)n4c3)ccc2o1

0.21
1.95

---

- Tested on: UO-31 renal
- Protocol: NCI tumour cell line growth inhibition, 48 h
Would you mind telling me the reported TGI of each entry?
One number for each entry, in µM.

Form field: TGI recorded for `CCN(CC)CCn1c(N)c(-c2nc3ccccc3n2C)c2nc(C#N)c(C#N)nc21` with UO-31 renal (enter value)
6.61

Form field: TGI recorded for COC(=O)C1CCC(=O)C(Sc2ccccc2)C1 (centres undefined) with UO-31 renal (enter value)
99

Form field: TGI recorded for `CCOC(=O)c1oc2c(OC)cc(Cl)c3c2c1CCC3` with UO-31 renal (enter value)
65.1

Next:
Form field: TGI recorded for `Clc1ccc(C(c2ccc(Cl)cc2)c2cncnc2)cc1` with UO-31 renal (enter value)
25.1
